Molecular target: h-GABAA α1β3γ2 (Homo sapiens, UniProt P14867+P18507)
Assay: Radioligand binding assay, [3H]Flumazenil competition, HEK293F membranes
Reported Ki by item:

See these solved cases before continuing.
Fc1cccc(F)c1C1=NCc2nnc(-c3ccncn3)n2-c2ccc(Cl)c(Cl)c21 [Example 12] : 490 nM
Cc1nnc2n1-c1cccc(Cl)c1C(c1c(F)cccc1F)=NC2 [RE-G, reference compound] : 302 nM
Fc1cccc(F)c1C1=NCc2nnc(-c3ccncn3)n2-c2ccc(Br)c(Br)c21 [Example 43] : 510 nM
Fc1ccccc1C1=NCc2nncn2-c2ccc(Br)c(Cl)c21 [Example 8] : 576 nM
O=c1[nH]nc2n1-c1ccc(Cl)c(Cl)c1C(c1c(F)cccc1F)=NC2 [Example 9] : 396 nM
COc1ccc2c(c1Cl)C(c1c(F)cccc1F)=NCc1nnc(-c3cccnc3)n1-2 [Example 62] : 2150 nM
Fc1cccc(F)c1C1=NCc2nnc(-c3cccnn3)n2-c2ccc(Cl)c(Cl)c21 [Example 14] : 299 nM
Fc1cccc(F)c1C1=NCc2nncn2-c2ccc(Cl)c(Cl)c21 [Example 15] : 249 nM

Record summary for COc1ccc2c(c1Cl)C(c1c(F)cccc1F)=NCc1nnc(C3CC3)n1-2 [Example 79] : reported Ki = 914 nM

Per the records, this compound ( Fc1cccnc1C1=NCc2nnc(-c3ccncn3)n2-c2ccc(Cl)c(Cl)c21 [Example 55] ) has Ki equal to 1720 nM
